Test system: 786-0 renal
Test details: NCI-60 one-dose screen, 48 h (100 = growth as untreated, 0 = no growth, -100 = all killed)
Condition notes: 10 µM unless noted
This is part of a sample that, as a whole, favours compounds with a hit. Of some 83,000 tested, about 20% had one in any assay. Calls of active or inactive are those of the source. Rule for the calls: active = growth percent below 10; inactive = the rest.
In this section we review reported growth values for a set of molecules.
Readout type: growth

- COc1cc(Cc2cc(OC)c(O)c(OC)c2)cc(OC)c1O: 107% (inactive)
- Nc1nc(N(Cc2ccccc2)c2ccccc2)c2cn[nH]c2n1: 72.3% (inactive)
- C=CN(C(=O)N1CCN(c2cc3c(cc2F)c(=O)c(C(=O)O)cn3C2CC2)CC1)c1nc(-c2ccccc2)cs1: 90.1% (inactive)
- CCOC(=O)C1=C(CCl)N(C)C(=O)NC1c1ccc2c(c1)OCO2 (stereo not given): 53.9% (inactive)
- C=C1C(=O)O[C@H]2[C@H]1CC/C(COC(=O)NCc1ccc(Cn3c(=O)sn(-c4ccccc4)c3=O)cc1)=C\CC[C@@]1(C)O[C@@H]21: 39.7% (inactive)
